So I've got a bunch of molecules here, and I need their IC50 values.
target: c-kit (Homo sapiens); construct: human Mo7e cells which endogenously express c-kit; endogenous in cells; host or cells: human Mo7e cells (SCF-dependent promegakaryocytic leukemia line); assay: Mo7e cell proliferation assay (SCF dependent proliferation); format: cell-based; conditions: Table 2; human Mo7e cells stimulated with human recombinant SCF, 48 h, CellTiter Glo; 1% FBS (footnote)
Sequence (P10721 26-976): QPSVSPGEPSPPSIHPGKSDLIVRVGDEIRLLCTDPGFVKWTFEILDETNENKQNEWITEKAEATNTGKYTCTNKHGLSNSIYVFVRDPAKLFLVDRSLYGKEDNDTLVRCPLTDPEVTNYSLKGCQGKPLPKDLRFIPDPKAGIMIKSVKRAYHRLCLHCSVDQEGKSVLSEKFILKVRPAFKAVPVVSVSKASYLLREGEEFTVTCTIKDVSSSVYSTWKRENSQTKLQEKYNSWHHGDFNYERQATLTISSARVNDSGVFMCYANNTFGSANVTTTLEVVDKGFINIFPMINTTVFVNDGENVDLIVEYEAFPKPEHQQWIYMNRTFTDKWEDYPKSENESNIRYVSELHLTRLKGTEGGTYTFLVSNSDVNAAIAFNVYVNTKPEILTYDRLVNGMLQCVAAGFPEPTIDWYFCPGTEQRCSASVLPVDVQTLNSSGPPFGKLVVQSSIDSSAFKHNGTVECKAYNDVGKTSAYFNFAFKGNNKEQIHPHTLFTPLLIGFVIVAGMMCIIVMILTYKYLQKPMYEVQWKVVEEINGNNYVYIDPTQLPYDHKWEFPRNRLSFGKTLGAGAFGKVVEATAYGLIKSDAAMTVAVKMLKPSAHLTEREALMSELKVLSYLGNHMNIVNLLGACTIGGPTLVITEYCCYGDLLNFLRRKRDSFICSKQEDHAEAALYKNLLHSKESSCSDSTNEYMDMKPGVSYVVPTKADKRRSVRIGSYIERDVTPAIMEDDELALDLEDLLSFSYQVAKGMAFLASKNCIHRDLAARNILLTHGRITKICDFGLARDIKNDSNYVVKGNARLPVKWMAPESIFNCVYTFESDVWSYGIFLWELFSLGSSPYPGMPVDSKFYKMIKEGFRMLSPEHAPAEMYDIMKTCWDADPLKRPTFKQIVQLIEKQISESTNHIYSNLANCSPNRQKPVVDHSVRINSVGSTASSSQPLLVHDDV
Field: numeric (µM). Do not append units.

Memo: Cc1ccc(-c2noc(CCN)n2)cc1NC(=O)c1cnc2ccccn12 , reported IC50: 2.18

Memo: Cc1ccc(-c2noc(CCCNS(C)(=O)=O)n2)cc1NC(=O)c1cnc2ccccn12 , reported IC50: 0.772

Memo: Cc1ccc(-c2noc(CCC(C)(C)O)n2)cc1NC(=O)c1cnc2c(N)cccn12 , reported IC50: 1.8
